efflux ratio at 2 h, 1 µM listing for selected compounds.
test: Bidirectional permeability measurement in Caco-2 cells
Type: in vitro ADME
conditions.used: human, Caco-2, pH 7.4, Modified Caco-2; read-out: Modified Caco-2 Efflux ratio
# output: bare number, no unit

>>> value_reported("Cc1ncsc1-c1ccc([C@H](COC(C)CN2CCC(c3ccc4c(c3)n(C3CCCC3)c3nc(=O)c5c(Br)cccc5n43)CC2)NC(=O)[C@@H]2C[C@@H](O)CN2C(=O)[C@@H](NC(=O)C2(N(C)C)CC2)C(C)(C)C)cc1 (some centres unmarked) [compound 10]")
36.3

What value of efflux ratio at 2 h, 1 µM has been reported for the following compound? Cc1ncsc1-c1ccc([C@H](COC(C)CN2CCC(c3ccc4c(c3)n(C3CCCC3)c3nc(=O)c5c(Br)cccc5n43)CC2)NC(=O)[C@@H]2C[C@@H](O)CN2C(=O)[C@@H](NC(=O)C2(F)CC2)C(C)(C)C)cc1 (some centres unmarked) [compound 9]
44.8

###

target.or.system: PBRM1BD5 (Homo sapiens, UniProt P40337+Q86U86)
Construct: GST (TEV site) (N); His6 (TEV site) (N, cleaved yes); made in house; host or cells: PBRM1^BD5: Escherichia coli BL21(DE3)
Sequence (Q86U86 645-766): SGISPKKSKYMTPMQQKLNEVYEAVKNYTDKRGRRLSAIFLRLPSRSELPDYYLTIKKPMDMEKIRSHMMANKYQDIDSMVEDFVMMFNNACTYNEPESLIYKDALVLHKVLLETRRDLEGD
Sequence (P40337 54-213): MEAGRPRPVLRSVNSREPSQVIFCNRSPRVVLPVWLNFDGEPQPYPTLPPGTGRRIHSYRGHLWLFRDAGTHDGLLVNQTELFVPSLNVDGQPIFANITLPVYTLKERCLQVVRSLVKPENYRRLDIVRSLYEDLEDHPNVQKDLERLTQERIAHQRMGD
Sequence (Q15369 17-112 partner): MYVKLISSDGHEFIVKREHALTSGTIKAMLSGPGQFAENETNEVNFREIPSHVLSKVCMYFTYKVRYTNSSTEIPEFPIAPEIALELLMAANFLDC
Sequence (Q15370 1-104 partner): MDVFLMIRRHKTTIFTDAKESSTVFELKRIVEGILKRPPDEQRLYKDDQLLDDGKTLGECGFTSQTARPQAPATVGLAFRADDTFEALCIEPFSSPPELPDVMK
test: TR-FRET ternary complex affinity and cooperativity, PBRM1
Type: binding
conditions.used: TR-FRET competition for PBRM1BD5, + VCB; mean ± SD; read-out: TR-FRET Ternary PBRM1BD EC50 (PROTAC + VCB)
Lab note: anything with EC50 below 20 nM is marked Fulfilled; values at 20 nM or higher are marked Not fulfilled.

Solved entries (count: 5):
>>> assigned_category("Cc1ncsc1-c1ccc(CNC(=O)[C@@H]2C[C@@H](O)CN2C(=O)[C@@H](NC(=O)C2(F)CC2)C(C)(C)C)c(OCCN2CCC(c3ccc4c(c3)n(C3CCCC3)c3nc(=O)c5c(Br)cccc5n43)CC2)c1")
"Not fulfilled"
>>> assigned_category("Cc1ncsc1-c1ccc(CNC(=O)[C@@H]2C[C@@H](O)CN2C(=O)[C@@H](NC(=O)C2(F)CC2)C(C)(C)C)c(OCCOCCOCCOCCN2CCC(c3ccc4c(c3)n(C3CCCC3)c3nc(=O)c5c(Br)cccc5n43)CC2)c1")
"Not fulfilled"
>>> assigned_category("Cc1ncsc1-c1ccc([C@H](COC(C)(C)CN2CCC(c3ccc4c(c3)n(C3CCCC3)c3nc(=O)c5c(Br)cccc5n43)CC2)NC(=O)[C@@H]2C[C@@H](O)CN2C(=O)[C@@H](NC(=O)C2(F)CC2)C(C)(C)C)cc1")
"Fulfilled"
>>> assigned_category("Cc1ncsc1-c1ccc([C@H](COCCN2CCC(c3ccc4c(c3)n(C3CCCC3)c3nc(=O)c5c(Br)cccc5n43)CC2)NC(=O)[C@@H]2C[C@@H](O)CN2C(=O)[C@@H](NC(=O)C2(N(C)C)CC2)C(C)(C)C)cc1")
"Fulfilled"
>>> assigned_category("Cc1ncsc1-c1ccc(CNC(=O)[C@@H]2C[C@@H](O)CN2C(=O)[C@@H](NC(=O)C2(F)CC2)C(C)(C)C)c(OCCCCN2CCC(c3ccc4c(c3)n(C3CCCC3)c3nc(=O)c5c(Br)cccc5n43)CC2)c1")
"Not fulfilled"

Given the entry "Cc1ncsc1-c1ccc([C@H](CCC(C)(C)CCN2CCC(c3ccc4c(c3)n(C3CCCC3)c3nc(=O)c5c(Br)cccc5n43)CC2)NC(=O)[C@@H]2C[C@@H](O)CN2C(=O)[C@@H](NC(=O)C2(F)CC2)C(C)(C)C)cc1" , would its reported EC50 be below 20 nM?
Fulfilled

Given the entry "CN1CCC(c2ccc3c(c2)n(C2CCCC2)c2nc(=O)c4c(Br)cccc4n32)CC1" , would its reported EC50 be below 20 nM?
Not fulfilled

Given the entry "Cc1ncsc1-c1ccc([C@H](CCCCCN2CCC(c3ccc4c(c3)n(C3CCCC3)c3nc(=O)c5c(Br)cccc5n43)CC2)NC(=O)[C@@H]2C[C@@H](O)CN2C(=O)[C@@H](NC(=O)C2(F)CC2)C(C)(C)C)cc1" , would its reported EC50 be below 20 nM?
Fulfilled

Given the entry Cc1ncsc1-c1ccc(C(CCC(C)CCN2CCC(c3ccc4c(c3)n(C3CCCC3)c3nc(=O)c5c(Br)cccc5n43)CC2)NC(=O)C2CC(O)CN2C(=O)C(NC(=O)C2(F)CC2)C(C)(C)C)cc1 (stereo not drawn) , would its reported EC50 be below 20 nM?
Fulfilled
